Conditions: 284.9 K; 101.33 kPa; Liquid; Pulse-echo method
Numbers after ± are expanded uncertainties.
experimental readout: speed of sound
Record the result as number plus unit.

Please review the entries below; each comes with its answer.
CCCCC(=O)[O-].C[NH2+]CCO [2-hydroxy-N-methylethanaminium pentanoate] = 1592.2 ± 2.1 m/s
CCC(=O)[O-].C[NH2+]CCO [2-hydroxy-N-methylethanaminium propionate] = 1730.2 ± 2.2 m/s
CCCC(=O)[O-].C[NH2+]CCO [N-methyl-2-hydroxyethylammonium butanoate] = 1658.5 ± 2.1 m/s
C[NH2+]CCO.O=C[O-] [2-hydroxy-N-methylethanaminium formate] = 1841.3 ± 2.2 m/s

# speed of sound of CC(C)C(=O)[O-].C[NH2+]CCO [2-hydroxy-N-methylethanaminium isobutyrate] = 1649.4 ± 2.1 m/s

* * *

Conditions: 326.66 K; 101.33 kPa; Liquid; Vibrating tube method
Consider the following compounds; for each one, report its mass density.
Answers are plain numbers, in kg/m3.

Check out these entries, answers already filled in.
CC(C)C(=O)[O-].C[NH2+]CCO [2-hydroxy-N-methylethanaminium isobutyrate] = 1024.68
CCC(=O)[O-].C[NH2+]CCO [2-hydroxy-N-methylethanaminium propionate] = 1052.45
CCCCC(=O)[O-].C[NH2+]CCO [2-hydroxy-N-methylethanaminium pentanoate] = 996.8
C[NH2+]CCO.O=C[O-] [2-hydroxy-N-methylethanaminium formate] = 1112.42
CCCC(=O)[O-].C[NH2+]CCO [N-methyl-2-hydroxyethylammonium butanoate] = 1019.82

The recorded mass density for CC(=O)[O-].C[NH2+]CCO [N-methyl-2-hydroxyethylammonium acetate] is 1083.43

* * *

Settings: 295.9 K; 101.33 kPa; Liquid; Vibrating tube method
Give measured mass density for each item. Keep answers brief.
Give bare numbers, in kg/m3.

C[NH2+]CCO.O=C[O-] [2-hydroxy-N-methylethanaminium formate] = 1129.5

For each of the compounds below, state mass density.
1. CCC(=O)[O-].C[NH2+]CCO [2-hydroxy-N-methylethanaminium propionate]
2. CCCCC(=O)[O-].C[NH2+]CCO [2-hydroxy-N-methylethanaminium pentanoate]
3. CC(=O)[O-].C[NH2+]CCO [N-methyl-2-hydroxyethylammonium acetate]
4. CC(C)C(=O)[O-].C[NH2+]CCO [2-hydroxy-N-methylethanaminium isobutyrate]

1: 1072.7; 2: 1017.74; 3: 1102.14; 4: 1044.8

mass density reading for CCCC(=O)[O-].C[NH2+]CCO [N-methyl-2-hydroxyethylammonium butanoate] : 1040.78

* * *

Conditions: 320.16 K; 101.33 kPa; Liquid; Pulse-echo method
Give speed of sound for every item shown.
Numbers only, in m/s.

Worked cases, answers included:
CC(C)C(=O)[O-].C[NH2+]CCO [2-hydroxy-N-methylethanaminium isobutyrate] = 1549.2
CCC(=O)[O-].C[NH2+]CCO [2-hydroxy-N-methylethanaminium propionate] = 1624.9
CCCC(=O)[O-].C[NH2+]CCO [N-methyl-2-hydroxyethylammonium butanoate] = 1545.6

// each molecule listed below needs its speed of sound
1. C[NH2+]CCO.O=C[O-] [2-hydroxy-N-methylethanaminium formate]
2. CCCCC(=O)[O-].C[NH2+]CCO [2-hydroxy-N-methylethanaminium pentanoate]

1. 1772.4
2. 1480.8

* * *

Conditions: 303.15 K; 101.33 kPa; Liquid; Vibrating tube method
What mass density was measured for each of the following?
Numbers only, in kg/m3.

Answered examples (5):
CCC(=O)[O-].C[NH2+]CCO [2-hydroxy-N-methylethanaminium propionate] = 1068.05
CCCC(=O)[O-].C[NH2+]CCO [N-methyl-2-hydroxyethylammonium butanoate] = 1035.87
C[NH2+]CCO.O=C[O-] [2-hydroxy-N-methylethanaminium formate] = 1125.45
CCCCC(=O)[O-].C[NH2+]CCO [2-hydroxy-N-methylethanaminium pentanoate] = 1012.86
CC(=O)[O-].C[NH2+]CCO [N-methyl-2-hydroxyethylammonium acetate] = 1097.84

mass density in this record for CC(C)C(=O)[O-].C[NH2+]CCO [2-hydroxy-N-methylethanaminium isobutyrate] : 1040.17
